src = paper PMC9937012

# IC50 per entry for human AChE (Homo sapiens, UniProt P22303)

Take a look at these entries with their results.
compound	IC50
CCOC(=O)c1nc2ccc(OCCN3CCCCC3)cc2s1	> 10 µM
O=C(c1nc2ccc(OCCCN3CCc4ccccc4C3)cc2s1)N1CCc2ccccc2C1	> 10 µM
O=C(NCc1ccccc1)c1nc2ccc(OCCCNCc3ccccc3)cc2s1	> 10 µM
CC1CC(C)CN(CCCOc2ccc3nc(C(=O)N4CC(C)CC(C)C4)sc3c2)C1 (stereo not shown)	> 10 µM
O=C(NC1CCCCCC1)c1nc2ccc(OCCCNC3CCCCCC3)cc2s1	> 10 µM

Batch of 3 compounds: report IC50 for each.
1. CCN1CCN(CCCOc2ccc3nc(C(=O)N4CCN(CC)CC4)sc3c2)CC1
2. COC(=O)c1nc2ccc(OCCN3CCCCC3)cc2s1
3. CCOC(=O)c1nc2ccc(OCCN3CCOCC3)cc2s1

Result ::
["> 10 µM", "2.92 µM", "> 10 µM"]

Look at each compound and report its IC50.
1. O=C(NC1CC1)c1nc2ccc(OCCCNC3CC3)cc2s1
2. CCOC(=O)c1nc2ccc(OCCN3CCCC3)cc2s1
3. O=C(NC1CCCC1)c1nc2ccc(OCCCCCNC3CCCC3)cc2s1
4. O=C(c1nc2ccc(OCCN3CCCC3)cc2s1)N1CCCC1

Result ::
1. > 10 µM
2. 7.63 µM
3. 3.55 µM
4. 0.44 µM

Look up IC50 for the entries below, preserving their order.
1. O=C(NC1CC1)c1nc2ccc(OCCCCCNC3CC3)cc2s1
2. O=C(NCCN1CCCC1)c1nc2ccc(OCCCNCCN3CCCC3)cc2s1
3. O=C(c1nc2ccc(OCCCCN3CCCC3)cc2s1)N1CCCC1
4. COC(=O)c1nc2ccc(OCCCN[C@@H](Cc3ccc(O)cc3)C(=O)OC)cc2s1
5. COC(=O)c1nc2ccc(OCCN3CCOCC3)cc2s1

Result ::
["> 10 µM", "1.24 µM", "1.3 µM", "> 10 µM", "> 10 µM"]

// batch mode: one IC50 value per listed entry
1. O=C(NC1CC1)c1nc2ccc(OCCCCNC3CC3)cc2s1
2. CC1CCCN(CCCOc2ccc3nc(C(=O)N4CCCC(C)C4)sc3c2)C1 (stereo not shown)

Result ::
1: > 10 µM; 2: > 10 µM
